Test system: CYP1A1 mRNA in primary human hepatocytes
Test: CYP1A1 mRNA expression in primary human hepatocytes
Assay type: cell-based
Details: 10 µM
measurement_kind: CYP1A1 mRNA fold induction over the vehicle-treated cells, LH45 (fold)
Give your result in fold as a bare value.

Below are worked cases with known answers.
compound	recorded_value
C[C@@H]1O[C@@H](Oc2cc3c(O)cc(O)cc3[o+]c2-c2ccc(O)c(O)c2)[C@H](O)[C@H](O)[C@H]1O.[Cl-] [CYA-6, cyanidin-3-O-rhamnoside chloride]	0.77
OC[C@H]1O[C@@H](Oc2cc3c(O[C@@H]4O[C@H](CO)[C@@H](O)[C@H](O)[C@H]4O)cc(O)cc3[o+]c2-c2ccc(O)cc2)[C@H](O)[C@@H](O)[C@@H]1O [PEL-1, pelargonidin-3,5-di-O-glucoside chloride]	0.70

The record that follows has no CYP1A1 mRNA fold induction over the vehicle-treated cells, LH45 shown yet.
[Q] I'm curious: which CYP1A1 mRNA fold induction over the vehicle-treated cells, LH45 was measured for C[C@@H]1O[C@@H](OC[C@H]2O[C@@H](Oc3cc4c(O)cc(O)cc4[o+]c3-c3ccc(O)c(O)c3)[C@H](O)[C@@H](O)[C@@H]2O)[C@H](O)[C@H](O)[C@H]1O.[Cl-] [CYA-2, cyanidin-3-O-rutinoside chloride] tested on CYP1A1 mRNA in primary human hepatocytes?
[A] 2.34

====

The entries below are paired with their reported CYP1A1 mRNA fold induction over the vehicle-treated cells, LH46.
Tested on: CYP1A1 mRNA in primary human hepatocytes
Assay: CYP1A1 mRNA expression in primary human hepatocytes
Type: cell-based
Details: hepatocyte culture LH46, 50 µM, 24 h
Give the number first and the unit second.

Worked examples follow.
molecule	target_or_test_system	recorded_value
OCC1OC(Oc2cc3c(OC4OC(CO)C(O)C(O)C4O)cc(O)cc3[o+]c2-c2cc(O)c(O)c(O)c2)C(O)C(O)C1O.[Cl-] (centres unmarked) [DEL-3, delphinidin-3,5-di-O-glucoside chloride]	CYP1A1 mRNA in primary human hepatocytes	1.14 ± 0.21 fold
C[C@@H]1O[C@@H](Oc2cc3c(O)cc(O)cc3[o+]c2-c2cc(O)c(O)c(O)c2)[C@H](O)[C@H](O)[C@H]1O.[Cl-] [DEL-5, delphinidin-3-O-rhamnoside chloride]	CYP1A1 mRNA in primary human hepatocytes	1.19 ± 0.18 fold
OC[C@H]1O[C@@H](Oc2cc3c(O)cc(O)cc3[o+]c2-c2cc(O)c(O)c(O)c2)[C@H](O)[C@@H](O)[C@@H]1O.[Cl-] [DEL-1, delphinidin-3-O-glucoside chloride]	CYP1A1 mRNA in primary human hepatocytes	0.80 ± 0.07 fold
C[C@@H]1O[C@@H](OC[C@H]2O[C@@H](Oc3cc4c(O)cc(O)cc4[o+]c3-c3cc(O)c(O)c(O)c3)[C@H](O)[C@@H](O)[C@@H]2O)[C@H](O)[C@H](O)[C@H]1O.[Cl-] [DEL-2, delphinidin-3-O-rutinoside chloride]	CYP1A1 mRNA in primary human hepatocytes	0.68 ± 0.01 fold
OC[C@H]1O[C@@H](Oc2cc3c(O)cc(O)cc3[o+]c2-c2cc(O)c(O)c(O)c2)[C@H](O[C@@H]2OC[C@@H](O)[C@H](O)[C@H]2O)[C@@H](O)[C@@H]1O.[Cl-] [DEL-4, delphinidin-3-O-sambubioside chloride]	CYP1A1 mRNA in primary human hepatocytes	1.31 ± 0.05 fold

[Q] So what does the record say about CYP1A1 mRNA fold induction over the vehicle-treated cells, LH46 for CC1OC(OCC2OC(Oc3cc4c(O)cc(O)cc4[o+]c3-c3ccc(O)cc3)C(O)C(O)C2O)C(O)C(O)C1O.[Cl-] (centres unmarked) [PEL-2, pelargonidin-3-O-rutinoside chloride] ?
[A] 2.39 ± 0.22 fold

[Q] So what's the measured CYP1A1 mRNA fold induction over the vehicle-treated cells, LH46 for this one? COc1cc(-c2[o+]c3cc(O)cc(O)c3cc2O[C@@H]2O[C@H](CO)[C@@H](O)[C@H](O)[C@H]2O)ccc1O.[Cl-] [PEO-1, peonidin-3-O-glucoside chloride]
[A] 2.48 ± 0.57 fold

[Q] # get_value(readout='CYP1A1 mRNA fold induction over the vehicle-treated cells, LH46', item= COc1cc(-c2[o+]c3cc(O)cc(O)c3cc2O[C@@H]2O[C@H](CO)[C@H](O)[C@H](O)[C@H]2O)cc(OC)c1O.[Cl-] [MAL-3, malvidin-3-O-galactoside chloride] )
[A] 1.32 ± 0.05 fold
